Data provenance: ChEMBL document CHEMBL2439971

# System: RPMI-8226
# protocol notes: Cytotoxicity against human RPMI8226 cells at 10 uM after 48 hrs by sulforhodamine B assay relative to control
# Assay type: functional
Measured Activity of individual entries
Just the number in %, nothing appended.

Below, 4 compounds whose answers are already recorded.
input: Kindly indicate its recorded Activity. Item: O=C(CN1CCCC1)Nc1ccc2c(c1)C(=O)c1cc(NC(=O)CN3CCCC3)ccc1-2
output: 78.34

input: Kindly indicate its recorded Activity. Item: CN1CCN(CCC(=O)Nc2ccc3c(c2)C(=O)c2cc(NC(=O)CCN4CCN(C)CC4)ccc2-3)CC1
output: 106.48

input: Kindly indicate its recorded Activity. Item: CCCCNCC(=O)Nc1ccc2c(c1)C(=O)c1cc(NC(=O)CNCCCC)ccc1-2
output: -37.38

input: Kindly indicate its recorded Activity. Item: CCCSCC(=O)Nc1ccc2c(c1)C(=O)c1cc(NC(=O)CSCCC)ccc1-2
output: 45.12

Kindly consider the entry below.
input: Kindly indicate its recorded Activity. Item: CCSCCC(=O)Nc1ccc2c(c1)C(=O)c1cc(NC(=O)CCSCC)ccc1-2
output: 103.94
